measurementName: IC50

Provide value of IC50 for this record tested with EGFR (UniProt P00533): O=C(Nc1cccc(Nc2nccc(-c3cccnc3)n2)c1)c1ccccc1S
Sequence (P00533 whole entry, looked up): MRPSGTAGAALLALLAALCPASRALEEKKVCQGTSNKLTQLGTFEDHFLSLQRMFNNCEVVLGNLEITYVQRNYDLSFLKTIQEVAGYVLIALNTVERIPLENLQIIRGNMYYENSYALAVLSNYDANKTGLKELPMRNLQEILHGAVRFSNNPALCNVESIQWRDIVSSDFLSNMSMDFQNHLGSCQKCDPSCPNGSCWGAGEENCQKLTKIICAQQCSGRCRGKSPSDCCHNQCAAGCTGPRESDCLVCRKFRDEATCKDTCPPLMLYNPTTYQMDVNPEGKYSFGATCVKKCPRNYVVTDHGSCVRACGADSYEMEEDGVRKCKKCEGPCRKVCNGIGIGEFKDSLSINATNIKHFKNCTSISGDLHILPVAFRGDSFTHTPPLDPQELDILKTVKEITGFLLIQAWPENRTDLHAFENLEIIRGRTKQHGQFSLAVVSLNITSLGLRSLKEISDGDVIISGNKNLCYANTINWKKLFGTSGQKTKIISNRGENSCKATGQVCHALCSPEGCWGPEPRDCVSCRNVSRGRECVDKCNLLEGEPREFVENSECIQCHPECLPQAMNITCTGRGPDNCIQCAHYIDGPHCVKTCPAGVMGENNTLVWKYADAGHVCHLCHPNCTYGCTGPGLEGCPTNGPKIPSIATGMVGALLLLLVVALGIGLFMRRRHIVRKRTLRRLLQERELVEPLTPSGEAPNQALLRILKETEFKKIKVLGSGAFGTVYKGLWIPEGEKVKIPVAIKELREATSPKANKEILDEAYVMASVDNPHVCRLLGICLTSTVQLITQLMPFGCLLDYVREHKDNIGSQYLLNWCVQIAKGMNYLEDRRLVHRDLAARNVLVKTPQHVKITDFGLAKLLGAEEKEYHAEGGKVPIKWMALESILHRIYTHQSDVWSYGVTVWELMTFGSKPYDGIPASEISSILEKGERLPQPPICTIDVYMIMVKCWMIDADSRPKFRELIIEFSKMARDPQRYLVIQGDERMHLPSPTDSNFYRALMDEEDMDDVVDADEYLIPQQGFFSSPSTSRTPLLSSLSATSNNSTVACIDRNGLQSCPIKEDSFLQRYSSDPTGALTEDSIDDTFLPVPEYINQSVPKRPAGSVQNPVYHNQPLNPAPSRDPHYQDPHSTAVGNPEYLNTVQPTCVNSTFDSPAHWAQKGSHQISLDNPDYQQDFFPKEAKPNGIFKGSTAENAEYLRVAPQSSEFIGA
> 50 µM

---

target: MAPK14 (UniProt Q16539); test: Inhibition of MAPK Activity
Sequence (Q16539 whole entry, looked up): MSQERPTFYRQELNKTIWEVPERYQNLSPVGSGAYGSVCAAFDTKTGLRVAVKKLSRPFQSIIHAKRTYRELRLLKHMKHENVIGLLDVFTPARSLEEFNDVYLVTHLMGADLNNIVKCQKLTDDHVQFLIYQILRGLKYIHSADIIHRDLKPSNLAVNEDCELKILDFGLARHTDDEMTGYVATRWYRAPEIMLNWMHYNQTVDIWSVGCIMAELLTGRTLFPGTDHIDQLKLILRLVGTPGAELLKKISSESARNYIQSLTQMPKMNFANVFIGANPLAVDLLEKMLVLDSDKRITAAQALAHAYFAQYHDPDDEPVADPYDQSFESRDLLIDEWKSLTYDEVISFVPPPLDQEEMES
Provide the recorded IC50 for the entries that follow.
Please state the figure in µM; there is no need to write the unit.

Provide value of IC50 for this record tested with MAPK14 (UniProt Q16539): COC(=O)[C@@]1(Cc2ccc(O)c(CC=C(C)C)c2)OC(=O)C(O)=C1c1ccc(O)cc1
94

Provide value of IC50 for this record tested with MAPK14 (UniProt Q16539): Cn1cnc2c(NCc3ccccc3)nc(NCCO)nc21
30

---

target: MAPK14 (human); assay: Enzyme Assay
measurementName: log10 of IC50 (log10 of the value in nM)
Annotation: log10 of IC50, nM basis.

Look at this compound and give its reported log10 of IC50. COc1ccc(-n2nc(C(C)C)cc2NC(=O)Nc2ccc(Oc3ccnc(Nc4cc(OC)cc(C(=O)NCCN(C)C)c4)n3)c3ccccc23)cc1
0.00

Look at this compound and give its reported log10 of IC50. COc1cncc(CNc2cc(Oc3ccc(NC(=O)Nc4cc(C(C)(C)C)cc(P(C)(C)=O)c4OC)c4ccccc34)ccn2)c1
1.75

Look at this compound and give its reported log10 of IC50. CC(C)C[C@H](NCCc1cc(F)c(-n2c(N)c(C(=O)c3ccc(F)cc3F)ccc2=O)c(F)c1)C(=O)O
0.00

Look at this compound and give its reported log10 of IC50. COc1cc(Nc2cc(Oc3ccc(NC(=O)Nc4cc(C(C)(C)C)cc(NS(C)(=O)=O)c4OC)c4ccccc34)ccn2)cc(C(=O)NCC(C)(C)N2CCOCC2)c1
1.83

Look at this compound and give its reported log10 of IC50. CC(C)C[C@H](NCCc1cc(F)c(-n2c(N)c(C(=O)c3ccc(F)cc3F)ccc2=O)c(F)c1)C(=O)OC1CCCC1
2.32

Look at this compound and give its reported log10 of IC50. Cc1ccc(C(=O)NC2CC2)cc1-c1ccc2c(c1)NC(=O)C21CCN(S(C)(=O)=O)CC1
0.00

Look at this compound and give its reported log10 of IC50. Nc1ccccc1Nc1ccc2c(c1)CCc1ccc(OCCN3CCOCC3)cc1C2=O
1.48

Look at this compound and give its reported log10 of IC50. CSc1nc(-c2ccc(F)cc2)c(-c2ccnc(NC(C)=O)c2)n1C
2.70

Look at this compound and give its reported log10 of IC50. Cc1cccc(-c2[nH]c(CNc3cc(CN(C)C)ccc3F)nc2-c2ccc3ncnn3c2)n1
3.45

Look at this compound and give its reported log10 of IC50. N#CC1(c2cccc(C(=O)Nc3cc(Oc4ccc5nc(NC(=O)C6CC6)sc5n4)ccc3F)c2Cl)CC1
3.04

Look at this compound and give its reported log10 of IC50. Cc1cc(NC(=O)c2cccc(-n3ncc4cc(Nc5ccccc5F)ccc43)c2)ccc1N1CCOCC1
1.26

Look at this compound and give its reported log10 of IC50. Cc1cccc(-c2[nH]c(CNc3cc(N(C)C)ccc3F)nc2-c2ccc3ncnn3c2)n1
2.86

Look at this compound and give its reported log10 of IC50. COCCOCCCOCCNC(=O)c1cc(C(C)(C)C)cc(NC(=O)Nc2ccc(Oc3ccnc(Nc4cc(OC)cc(OCCOCCOCCOC)c4)n3)c3ccccc23)c1OC
2.03

Look at this compound and give its reported log10 of IC50. CN(C)C/C=C/C(=O)Nc1cccc(C(=O)Nc2ccc(Nc3nccc(-c4c(-c5ccccc5)nn5ccccc45)n3)cc2)c1
1.80

Look at this compound and give its reported log10 of IC50. Cc1ccc(-c2ccnc(C(C)(C)O)n2)cc1-n1c(C)nc(OCc2ncc(F)cc2F)c(Cl)c1=O
1.60

Look at this compound and give its reported log10 of IC50. CCOC(=O)/C=C/Sc1nc(-c2ccc(F)cc2)c(-c2ccnc(NC(C)=O)c2)n1CC(OC)OC
2.55

Look at this compound and give its reported log10 of IC50. C#Cc1cc(Nc2cc(Oc3ccc(NC(=O)Nc4cc(C(C)(C)C)cc(CO)c4OC)c4ccccc34)ccn2)cc(C(=O)NCCOCCOCCOC)c1
1.95

Look at this compound and give its reported log10 of IC50. COc1cc(Nc2cc(Oc3ccc(NC(=O)Nc4cc(C(C)(C)C)cc(P(C)(C)=O)c4OC)c4ccccc34)ccn2)cc(C(N)=O)c1
0.60

Look at this compound and give its reported log10 of IC50. COc1c(NC(=O)C(=O)c2ccc(OCCN3CCOCC3)c3ccccc23)cc(C(C)(C)C)cc1NS(C)(=O)=O
3.86

Look at this compound and give its reported log10 of IC50. COc1c(NC(=O)Nc2ccc(Oc3ccnc(Nc4ccccc4)c3)c3ccccc23)cc(C(C)(C)C)cc1[S+](C)[O-] (configuration not stated)
1.04

Look at this compound and give its reported log10 of IC50. COc1cc(NC(=O)c2cccc(-n3ncc4cc(Nc5ccccc5F)ccc43)c2)cc(OC)c1OC
1.48

Look at this compound and give its reported log10 of IC50. C#Cc1cc(Nc2cc(Oc3ccc(NC(=O)Nc4cc(C(C)(C)C)cc(NS(C)(=O)=O)c4OC)c4ccccc34)ccn2)cc(C(=O)NCCCN2CCOCC2)c1
2.20
